Biological target: GABARAP (UniProt O95166 2-116)
Sequence (O95166 2-116): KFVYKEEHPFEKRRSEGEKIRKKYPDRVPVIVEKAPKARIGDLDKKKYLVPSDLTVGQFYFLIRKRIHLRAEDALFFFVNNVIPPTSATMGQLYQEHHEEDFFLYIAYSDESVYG
Experiment: FP
Where no end group is shown, it is not given here.
Recorded pKd values for a group of binders are listed next.
Notebook: values listed as pKd are -log10 of the concentration (mol/L).

Data request, read-out pKd, for LEAIIEEDDGDGGWVDTYHCGGGK (also: fluorescein, position not given here, cyclized, places not given here) [fluorescein-modified cyclized LIR^ATG3 peptide]
6.82

Attention now shifts to the item below.
Data request, read-out pKd, for LEAIIEEDDGDGGWVDTYH (also: fluorescein, position not given here) [fluorescein-modified linear LIR^ATG3 peptide]
5.92

All values here come from paper PMC10214526.
